Reported TGI is given for each of the following molecules.
System: OVCAR-8 ovarian
Method summary: NCI tumour cell line growth inhibition, 48 h
Metric: TGI

- Molecule: "CC(=O)OCC1OC(OC2CC3C(C)(C)C(OC(C)=O)CC[C@]3(C)C3CCC45CC4(CCC5[C@@H](C)C[C@H](O)C(O)C(C)(C)O)[C@]23C)C(O)C(O)C1O (some centres undefined)"
  Target entity: "OVCAR-8 ovarian"
  Metric: "TGI"
  Observed: "> 10 µM"
- Molecule: "NC(=O)c1ccccc1Nc1ccc2nnc(-c3ccncc3)n2n1"
  Target entity: "OVCAR-8 ovarian"
  Metric: "TGI"
  Observed: "31.5 µM"
- Molecule: "CCOC(=O)c1cn2c(n1)sc1c(Cl)c(Cl)ccc12"
  Target entity: "OVCAR-8 ovarian"
  Metric: "TGI"
  Observed: "> 66 µM"
- Molecule: "CC1OC(n2c3ccccc3c3c4c(c5c6ccccc6[nH]c5c32)C(=O)N(CCN[C@@H]2CCC[C@H]2N)C4=O)CC(O)C1O (some centres undefined)"
  Target entity: "OVCAR-8 ovarian"
  Metric: "TGI"
  Observed: "9.11 µM"
- Molecule: "CCOP(=O)(OCC)C(Nc1ccc(Br)cc1)c1cccc([N+](=O)[O-])c1 (centres undefined)"
  Target entity: "OVCAR-8 ovarian"
  Metric: "TGI"
  Observed: "> 100 µM"
- Molecule: "CCC(C)C1=C(OC(C)=O)[N+]2([O-])Oc3ccc(-c4c(OC(C)=O)c(OC(C)=O)c(-c5ccc(OC(C)=O)cc5)c(OC(C)=O)c4OC(C)=O)cc3OC2(C(C)CC)C(=O)N1OC(C)=O (centres undefined)"
  Target entity: "OVCAR-8 ovarian"
  Metric: "TGI"
  Observed: "> 50 µM"
- Molecule: "CCOc1ccc(/C(Cl)=C(\\C=O)c2ccc(OC)c(OC)c2)cc1OCC"
  Target entity: "OVCAR-8 ovarian"
  Metric: "TGI"
  Observed: "> 100 µM"
- Molecule: "COc1ccc(CC(=O)N2CCC3(C)CC(=O)CC=C23)cc1OC (centres undefined)"
  Target entity: "OVCAR-8 ovarian"
  Metric: "TGI"
  Observed: "> 100 µM"
- Molecule: "CCN(Cc1ccc(F)cc1)c1ccc(CO)c(F)c1"
  Target entity: "OVCAR-8 ovarian"
  Metric: "TGI"
  Observed: "> 84.5 µM"
